# method: Biodistribution studies incl. blocking experiments
# Assay type: in vivo
# experimental.parameters: healthy BALB/c mice, 10 min p.i.
# Lookup of reported Biodistribution Lung keyed by entry
measured.metric: Biodistribution Lung

[[record]]
molecule = "O=C(CCP(=O)([O-])CN1CCN(CP(=O)([O-])CCC(=O)NCc2cn(CCOCCOCCO[C@@H]3O[C@H](CO)[C@@H](O)[C@H](O)[C@H]3O)nn2)CCN(CP(=O)([O-])CCC(=O)NCc2cn(CCOCCOCCO[C@@H]3O[C@H](CO)[C@@H](O)[C@H](O)[C@H]3O)nn2)CC1)NCc1cn(CCOCCOCCO[C@@H]2O[C@H](CO)[C@@H](O)[C@H](O)[C@H]2O)nn1.[68Ga+3] [[^68Ga]Ga-TRAP-Gluco, reference compound]"
value_observed = "2.84 ± 0.13 % ID/g"

[[record]]
molecule = "CC(=O)N[C@H]1[C@H](OCCOCCOCCn2cc(CNC(=O)CCP(=O)([O-])CN3CCN(CP(=O)([O-])CCC(=O)NCc4cn(CCOCCOCCO[C@@H]5O[C@H](CO)[C@H](O)[C@H](O)[C@H]5NC(C)=O)nn4)CCN(CP(=O)([O-])CCC(=O)NCc4cn(CCOCCOCCO[C@@H]5O[C@H](CO)[C@H](O)[C@H](O)[C@H]5NC(C)=O)nn4)CC3)nn2)O[C@H](CO)[C@H](O)[C@@H]1O.[68Ga+3] [[^68Ga]Ga-TRAP-GalNAc]"
value_observed = "0.92 ± 0.11 % ID/g"

[[record]]
molecule = "O=C(CCP(=O)([O-])CN1CCN(CP(=O)([O-])CCC(=O)NCc2cn([C@@H]3O[C@H](CO)[C@H](O)[C@H](O)[C@H]3O)nn2)CCN(CP(=O)([O-])CCC(=O)NCc2cn([C@@H]3O[C@H](CO)[C@H](O)[C@H](O)[C@H]3O)nn2)CC1)NCc1cn([C@@H]2O[C@H](CO)[C@H](O)[C@H](O)[C@H]2O)nn1.[68Ga+3] [[^68Ga]Ga-Galacto-TRAP]"
value_observed = "1.97 ± 0.07 % ID/g"

[[record]]
molecule = "O=C(CCP(=O)([O-])CN1CCN(CP(=O)([O-])CCC(=O)NCc2cn(CCOCCOCCO[C@@H]3O[C@H](CO)[C@H](O)[C@H](O)[C@H]3O)nn2)CCN(CP(=O)([O-])CCC(=O)NCc2cn(CCOCCOCCO[C@@H]3O[C@H](CO)[C@H](O)[C@H](O)[C@H]3O)nn2)CC1)NCc1cn(CCOCCOCCO[C@@H]2O[C@H](CO)[C@H](O)[C@H](O)[C@H]2O)nn1.[68Ga+3] [[^68Ga]Ga-TRAP-Galactan]"
value_observed = "2.31 ± 0.17 % ID/g"


###

# method: Biodistribution studies incl. blocking experiments
# Format: in vivo
# experimental.parameters: healthy BALB/c mice, 60 min p.i.
# Method: For biodistribution studies 6 week old female BALB/c mice (n=3) were injected with 0.1 nmol (100 μL, approx. 1 MBq) of labelled compound via the lateral tail vein and sacrificed after 10, 30, or 60 min by cervical dislocation. The mice were dissected, blood and organs (spleen, pancreas, stomach, intestine, liver, kidney, heart, lung, muscle, and bone) were weighed, and their activity measured in a γ-counter. […]
measured.metric: Biodistribution Femur (% ID/g)

[[record]]
molecule = "O=C(O)CN1CCN(CC(=O)O)CCN([C@H](CCC(=O)NCCCC(=O)NC(COCc2cn(CCOCCOCCO[C@@H]3O[C@H](CO)[C@H](O)[C@H](O)[C@H]3O)nn2)(COCc2cn(CCOCCOCCO[C@@H]3O[C@H](CO)[C@H](O)[C@H](O)[C@H]3O)nn2)COCc2cn(CCOCCOCCO[C@@H]3O[C@H](CO)[C@H](O)[C@H](O)[C@H]3O)nn2)C(=O)O)CC1 [[^68Ga]Ga-NODAGA-TriGalactan, metal not drawn]"
measured_metric = "Biodistribution Femur"
value_observed = 0.26


###

# method: Biodistribution studies incl. blocking experiments
# Assay type: in vivo
# experimental.parameters: healthy BALB/c mice, 30 min p.i.
Each record here notes measured Biodistribution Liver.
measured.metric: Biodistribution Liver (% ID/g)

[[record]]
compound = "O=C(O)CN1CCN(CC(=O)O)CCN([C@H](CCC(=O)NCCCC(=O)NC(COCc2cn(CCOCCOCCO[C@@H]3O[C@H](CO)[C@H](O)[C@H](O)[C@H]3O)nn2)(COCc2cn(CCOCCOCCO[C@@H]3O[C@H](CO)[C@H](O)[C@H](O)[C@H]3O)nn2)COCc2cn(CCOCCOCCO[C@@H]3O[C@H](CO)[C@H](O)[C@H](O)[C@H]3O)nn2)C(=O)O)CC1 [[^68Ga]Ga-NODAGA-TriGalactan, metal not drawn]"
measured_metric = "Biodistribution Liver"
unit_annotation = "% ID/g"
value_observed = 32.2

[[record]]
compound = "O=C(CCP(=O)([O-])CN1CCN(CP(=O)([O-])CCC(=O)NCc2cn([C@@H]3O[C@H](CO)[C@H](O)[C@H](O)[C@H]3O)nn2)CCN(CP(=O)([O-])CCC(=O)NCc2cn([C@@H]3O[C@H](CO)[C@H](O)[C@H](O)[C@H]3O)nn2)CC1)NCc1cn([C@@H]2O[C@H](CO)[C@H](O)[C@H](O)[C@H]2O)nn1.[68Ga+3] [[^68Ga]Ga-Galacto-TRAP]"
measured_metric = "Biodistribution Liver"
unit_annotation = "% ID/g"
value_observed = 5.02

[[record]]
compound = "CC(=O)N[C@H]1[C@H](OCCOCCOCCn2cc(CNC(=O)CCP(=O)([O-])CN3CCN(CP(=O)([O-])CCC(=O)NCc4cn(CCOCCOCCO[C@@H]5O[C@H](CO)[C@H](O)[C@H](O)[C@H]5NC(C)=O)nn4)CCN(CP(=O)([O-])CCC(=O)NCc4cn(CCOCCOCCO[C@@H]5O[C@H](CO)[C@H](O)[C@H](O)[C@H]5NC(C)=O)nn4)CC3)nn2)O[C@H](CO)[C@H](O)[C@@H]1O.[68Ga+3] [[^68Ga]Ga-TRAP-GalNAc]"
measured_metric = "Biodistribution Liver"
unit_annotation = "% ID/g"
value_observed = 63.88

[[record]]
compound = "O=C(CCP(=O)([O-])CN1CCN(CP(=O)([O-])CCC(=O)NCc2cn(CCOCCOCCO[C@@H]3O[C@H](CO)[C@H](O)[C@H](O)[C@H]3O)nn2)CCN(CP(=O)([O-])CCC(=O)NCc2cn(CCOCCOCCO[C@@H]3O[C@H](CO)[C@H](O)[C@H](O)[C@H]3O)nn2)CC1)NCc1cn(CCOCCOCCO[C@@H]2O[C@H](CO)[C@H](O)[C@H](O)[C@H]2O)nn1.[68Ga+3] [[^68Ga]Ga-TRAP-Galactan]"
measured_metric = "Biodistribution Liver"
unit_annotation = "% ID/g"
value_observed = 29.7

[[record]]
compound = "O=C(CCP(=O)([O-])CN1CCN(CP(=O)([O-])CCC(=O)NCc2cn(CCOCCOCCO[C@@H]3O[C@H](CO)[C@@H](O)[C@H](O)[C@H]3O)nn2)CCN(CP(=O)([O-])CCC(=O)NCc2cn(CCOCCOCCO[C@@H]3O[C@H](CO)[C@@H](O)[C@H](O)[C@H]3O)nn2)CC1)NCc1cn(CCOCCOCCO[C@@H]2O[C@H](CO)[C@@H](O)[C@H](O)[C@H]2O)nn1.[68Ga+3] [[^68Ga]Ga-TRAP-Gluco, reference compound]"
measured_metric = "Biodistribution Liver"
unit_annotation = "% ID/g"
value_observed = 0.51


###

# method: Biodistribution studies incl. blocking experiments
# Format: in vivo
# experimental.parameters: healthy BALB/c mice, 10 min p.i.
measured.metric: Biodistribution Blood

[[record]]
compound = "O=C(CCP(=O)([O-])CN1CCN(CP(=O)([O-])CCC(=O)NCc2cn(CCOCCOCCO[C@@H]3O[C@H](CO)[C@@H](O)[C@H](O)[C@H]3O)nn2)CCN(CP(=O)([O-])CCC(=O)NCc2cn(CCOCCOCCO[C@@H]3O[C@H](CO)[C@@H](O)[C@H](O)[C@H]3O)nn2)CC1)NCc1cn(CCOCCOCCO[C@@H]2O[C@H](CO)[C@@H](O)[C@H](O)[C@H]2O)nn1.[68Ga+3] [[^68Ga]Ga-TRAP-Gluco, reference compound]"
measured_metric = "Biodistribution Blood"
value_observed = "4.53 ± 0.52 % ID/g"


###

# method: Biodistribution studies incl. blocking experiments
# Type: in vivo
# experimental.parameters: healthy BALB/c mice, 30 min p.i.
Entry flag: Satisfied if Biodistribution Intestine reaches 0.8 % ID/g; Not satisfied if it does not.

[[record]]
compound = "CC(=O)N[C@H]1[C@H](OCCOCCOCCn2cc(CNC(=O)CCP(=O)([O-])CN3CCN(CP(=O)([O-])CCC(=O)NCc4cn(CCOCCOCCO[C@@H]5O[C@H](CO)[C@H](O)[C@H](O)[C@H]5NC(C)=O)nn4)CCN(CP(=O)([O-])CCC(=O)NCc4cn(CCOCCOCCO[C@@H]5O[C@H](CO)[C@H](O)[C@H](O)[C@H]5NC(C)=O)nn4)CC3)nn2)O[C@H](CO)[C@H](O)[C@@H]1O.[68Ga+3] [[^68Ga]Ga-TRAP-GalNAc]"
class_label = "Satisfied"

[[record]]
compound = "O=C(CCP(=O)([O-])CN1CCN(CP(=O)([O-])CCC(=O)NCc2cn(CCOCCOCCO[C@@H]3O[C@H](CO)[C@@H](O)[C@H](O)[C@H]3O)nn2)CCN(CP(=O)([O-])CCC(=O)NCc2cn(CCOCCOCCO[C@@H]3O[C@H](CO)[C@@H](O)[C@H](O)[C@H]3O)nn2)CC1)NCc1cn(CCOCCOCCO[C@@H]2O[C@H](CO)[C@@H](O)[C@H](O)[C@H]2O)nn1.[68Ga+3] [[^68Ga]Ga-TRAP-Gluco, reference compound]"
class_label = "Not satisfied"

[[record]]
compound = "O=C(O)CN1CCN(CC(=O)O)CCN([C@H](CCC(=O)NCCCC(=O)NC(COCc2cn(CCOCCOCCO[C@@H]3O[C@H](CO)[C@H](O)[C@H](O)[C@H]3O)nn2)(COCc2cn(CCOCCOCCO[C@@H]3O[C@H](CO)[C@H](O)[C@H](O)[C@H]3O)nn2)COCc2cn(CCOCCOCCO[C@@H]3O[C@H](CO)[C@H](O)[C@H](O)[C@H]3O)nn2)C(=O)O)CC1 [[^68Ga]Ga-NODAGA-TriGalactan, metal not drawn]"
class_label = "Satisfied"

[[record]]
compound = "O=C(CCP(=O)([O-])CN1CCN(CP(=O)([O-])CCC(=O)NCc2cn(CCOCCOCCO[C@@H]3O[C@H](CO)[C@H](O)[C@H](O)[C@H]3O)nn2)CCN(CP(=O)([O-])CCC(=O)NCc2cn(CCOCCOCCO[C@@H]3O[C@H](CO)[C@H](O)[C@H](O)[C@H]3O)nn2)CC1)NCc1cn(CCOCCOCCO[C@@H]2O[C@H](CO)[C@H](O)[C@H](O)[C@H]2O)nn1.[68Ga+3] [[^68Ga]Ga-TRAP-Galactan]"
class_label = "Satisfied"

